Molecular target: nucleocapsid protein of the SARS-CoV-2 virus (N protein) (SARS-CoV-2), P0DTC9
Test readout: pKd
Remember the convention: pKd equals -log10 of concentration in molar.

Please give the documented pKd of RVTQMNLNDRLASLYDKV (modifications not checked) [peptide identified in the Sequence Listing as SEQ ID NO: 1]
8.45

The reported numbers originate from patent US20250282828A1.
